# Tested on: CAL-27
# assay: Antiproliferative activity against human CAL-27 cells assessed as reduction in cell viability incubated for 24 hrs by MTT assay
# Type: functional, cell-based
# conditionNotes: CAL-27, 24 h
pIC50: −log10 of the molar value.
Catalogue of molecules with associated pIC50
quantityKind: pIC50

molecule: O=C1NC(/C=C2/C(c3ccccc3)=C(c3ccccc3)c3ccccc32)=NC2c3ccccc3OC12 (configuration not stated)
measuredOn: CAL-27
assayResult: 5.06
--
molecule: O=c1[nH]c(/C=C2/C(c3ccccc3)=C(c3ccccc3)c3cc(C(F)(F)F)ccc32)nc2ccccc12
measuredOn: CAL-27
assayResult: 5.03
